- Study System: T1, soluble Homo sapiens CD131 comprising a C-terminal 6xHis tag (human, UniProt P32927 17-438)
- T1 construct: truncated after Ser438, C-terminal 6xHis; also called shCD131; shβc
- T1 sequence: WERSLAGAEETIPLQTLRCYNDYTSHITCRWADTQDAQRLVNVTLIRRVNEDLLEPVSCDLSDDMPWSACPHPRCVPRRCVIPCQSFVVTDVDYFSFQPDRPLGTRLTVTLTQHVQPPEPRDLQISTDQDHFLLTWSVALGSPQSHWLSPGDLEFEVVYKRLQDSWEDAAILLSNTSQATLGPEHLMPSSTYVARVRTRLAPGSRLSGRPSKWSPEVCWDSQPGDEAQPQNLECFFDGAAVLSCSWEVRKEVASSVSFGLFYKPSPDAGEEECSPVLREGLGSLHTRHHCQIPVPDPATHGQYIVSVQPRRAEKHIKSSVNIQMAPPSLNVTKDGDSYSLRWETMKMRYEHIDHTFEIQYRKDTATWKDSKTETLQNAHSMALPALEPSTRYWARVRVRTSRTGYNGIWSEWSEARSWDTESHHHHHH
- Test Summary: SPR, Fab over captured shCD131
For each entry below, report its koff value.
Output should be the measured figure followed by the unit it is expressed in.

Quick check: koff of 9A2-VR24.107 Fab (Fab, V domains shown, recombinant Fab) VH: EVQLLESGGGLVQPGGSLRLSCAASGFTFPWYRVHWVRQAPGKGLEWVSSIRSSGGFPYYNPFVKGRFTISRDNSKNTLYLQMNSLRAEDTAVYYCARFYDSFFDIWGQGTMVTVSS VL: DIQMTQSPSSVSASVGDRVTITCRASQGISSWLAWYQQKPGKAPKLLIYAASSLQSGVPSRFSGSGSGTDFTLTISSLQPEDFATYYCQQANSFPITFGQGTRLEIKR ?
0.00053 s⁻¹

Again, but for 9A2-VR39.24 Fab (Fab, V domains shown, recombinant Fab) VH: EVQLLESGGGLVQPGGSLRLSCAASGFTFHHFHVIWVRQAPGKGLEWVSSINGRGRVTYYADSVKGRFTISRDNSKNTLYLQMNSLRAEDTAVYYCARFYDSFFDIWGQGTMVTVSS VL: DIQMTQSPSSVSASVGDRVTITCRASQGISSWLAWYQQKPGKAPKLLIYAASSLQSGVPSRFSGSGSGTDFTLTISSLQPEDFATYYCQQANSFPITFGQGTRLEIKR
0.0005 s⁻¹
